Tested on: Streptococcus pneumoniae
test_details: Inhibition of penicillin-resistant Streptococcus pneumoniae 159 recombinant MurM at 1 mM by liquid scintillation counting
Assignment: determine reported inhibition for the given compounds.
Numbers only, in %.

>  <compound>
CC(N)P(=O)(O)O[C@@H]1[C@H](O)[C@@H](CO)O[C@H]1n1cnc2c(N)ncnc21 (stereo not given in full)

>  <units_text>
%

>  <inhibition>
55

$$$$
>  <compound>
CC(NC(=O)OCc1ccccc1)P(=O)(O)O[C@H]1C[C@H](n2cnc3c(NC(=O)c4ccccc4)ncnc32)O[C@@H]1CO[Si](C)(C)C(C)(C)C (stereo not given in full)

>  <units_text>
%

>  <inhibition>
0

$$$$
>  <compound>
Nc1ncnc2c1ncn2[C@H]1C[C@H](OP(=O)(O)O)[C@@H](CO)O1

>  <units_text>
%

>  <inhibition>
15

$$$$
>  <compound>
CC(NC(=O)OCc1ccccc1)P(=O)(O)O[C@H]1C[C@H](n2cnc3c(N)ncnc32)O[C@@H]1CO[Si](C)(C)C(C)(C)C (stereo not given in full)

>  <units_text>
%

>  <inhibition>
0

$$$$
>  <compound>
CNC(=O)OC[C@H]1O[C@@H](n2cnc3c(N)ncnc32)C[C@@H]1OP(=O)(O)C(C)N (stereo not given in full)

>  <units_text>
%

>  <inhibition>
3

$$$$
>  <compound>
Nc1ncnc2c1ncn2[C@H]1C[C@H](O)[C@@H](CO)O1

>  <units_text>
%

>  <inhibition>
13

$$$$

Would you be so kind as to report inhibition for each listed record?
1. CC(N)P(=O)(O)O[C@H]1C[C@H](n2cnc3c(N)ncnc32)O[C@@H]1CO (stereo not given in full)
2. COc1ccc(C[C@H](N)C(=O)N[C@H]2[C@@H](O)[C@H](n3cnc4c(N(C)C)ncnc43)O[C@@H]2CO)cc1
3. CC(NC(=O)OCc1ccccc1)P(=O)(O)O[C@H]1C[C@H](n2cnc3c(N)ncnc32)O[C@@H]1CO (stereo not given in full)
4. CC(N)P(=O)(O)O[C@H]1C[C@H](n2cnc3c(N)ncnc32)O[C@@H]1CO[Si](C)(C)C(C)(C)C (stereo not given in full)

Ans:
1: 95; 2: 0; 3: 0; 4: 0
